Consider the following compounds; for each one, report its growth inhibition.
- methodDescription: NCI Yeast Anticancer Drug Screen. Data for the mec2-1 strain (AID 157)
- experimentalSetup: S. cerevisiae mec2-1 strain, at 50.0 µM, hits give high values
This is part of a sample that, as a whole, favours compounds with a hit. Of some 79,000 tested, about 15% had one in any assay.
Numbers only, in %.

Nc1nc(Cl)nc(Cl)c1N :: 7.1

Below are some compounds; for each one, tell me its growth inhibition.
1. C/C(=N/NC(N)=S)c1cn[nH]c1C
2. COC(=O)CC(C(C(=O)OC)C(=O)OC)N1C(=O)OC(c2ccccc2)C1c1ccccc1 (configuration not stated)

(A)
1. -19.9
2. -10.5

Below are some compounds; for each one, tell me its growth inhibition.
1. Cc1nc2ccccc2nc1CCC(=O)O
2. CCCCCCCCCCCCCCCCCCCCC1CC(=O)OC1=O (configuration not stated)
3. NC(=O)N1N=C2c3ccccc3SC[C@H]2[C@@H]1c1ccccc1
4. O=C(/C=C/c1c[nH]c2ccccc12)c1ccccc1[N+](=O)[O-]
5. CC1CCC(C(C)C)C2(C1)OC(CCl)CS2 (configuration not stated)
6. CC(=O)OCC(=O)C1(O)CCC2C3CCC4=CC(=O)CCC4(C)C3(SC#N)CC(=O)C21C (configuration not stated)

(A)
[4.25, 11.8, -23.2, 9.75, 14.7, 19.9]

Below are some compounds; for each one, tell me its growth inhibition.
1. CC(C)OC(=S)SCC(=O)c1ccc(-c2ccccc2)cc1
2. CC(=O)OCC1OC(n2c(C)c(N=Nc3ccc(C)cc3)c(C)c(C#N)c2=S)C(OC(C)=O)C(OC(C)=O)C1OC(C)=O (configuration not stated)
3. NC1=NOC(=O)C1c1ccccc1 (configuration not stated)

(A)
1: 17.5; 2: -14.4; 3: -45.3

* * *

- methodDescription: NCI Yeast Anticancer Drug Screen. Data for the bub3 strain (AID 167)
- experimentalSetup: S. cerevisiae bub3 mutant strain, at 50.0 µM, hits give high values
About 79,000 compounds went through this panel and 15% of them were active in at least one assay; those are over-represented in the sample as a whole.
quantityMeasured: growth inhibition (%)
Answers are plain numbers, in %.

Record excerpt, results attached:
CCOC(=O)NCCNC(=O)OCC :: -11.7
Nc1ccc(Cl)cc1C(=O)Oc1ccccn1 :: -5.5

Below are some compounds; for each one, tell me its growth inhibition.
1. NC1=NN(c2ccccc2)C(=O)C1/C(=N\NC(=O)c1cc2ccccc2cc1O)C(=O)Nc1ccc(Cl)cc1 (stereo unspecified)
2. CC(CNC(N)=O)(CNC(N)=O)c1ccccc1
3. CC1=NNC(=O)C2CCC(=O)N12 (stereo unspecified)
4. N#Cc1c(-c2ccco2)cc(-c2ccc(N)cc2)[nH]c1=O

(A)
1. 22.8
2. -0.45
3. 12.1
4. -8.9

* * *

Consider the following compounds; for each one, report its growth inhibition.
- methodDescription: NCI Yeast Anticancer Drug Screen. Data for the mec2-1 strain (AID 157)
- experimentalSetup: S. cerevisiae mec2-1 strain, at 50.0 µM, hits give high values
Compounds without any hit were thinned out: in the full panel of roughly 79,000, 15% have a hit.
Answers are plain numbers, in %.

Record excerpt, results attached:
C[C@@H](C1CC[C@H]2[C@@H]3[C@@H]4O[C@@H]4[C@@]4(O)CC=CC(=O)[C@]4(C)[C@H]3C[C@H](O)[C@]12C)[C@H]1C[C@]2(C)O[C@]2(C)C(=O)O1 (stereo partly specified) :: -3.25
O=C(Nc1ccc(N=Nc2ccccc2)cc1)c1ccc(Cl)cc1 :: 2.3
CCC(O)C(C)(C)N (stereo unspecified) :: -7.8
COc1cc(NCCCCC2CCCCN2)c2ncccc2c1 (stereo unspecified) :: 2
COc1cc2c(cc1OC)C(=O)CC2 :: -10.9

The measured growth inhibition associated with c1ccc2c(c1)CCOC2 reads 5.9

* * *

- methodDescription: NCI Yeast Anticancer Drug Screen. Data for the mec2-1 strain (AID 157)
- experimentalSetup: S. cerevisiae mec2-1 strain, at 50.0 µM, hits give high values
The panel holds about 79,000 compounds, 15% with a hit somewhere; the sample as a whole holds those more often. The source made the active and inactive calls. Cut-off read from the data, not from the text of the source: active = growth inhibition above about 70%; inactive = the rest.
Consider the following molecules; for each one, report its growth inhibition.

Record excerpt, results attached:
OCC1OC2OC(c3ccccc3)(c3ccc(OCc4ccccc4)nc3OCc3ccccc3)OC2C1O (configuration not stated) :: 2.6% (inactive)
CS(=O)(=O)OCc1nnn(-c2ccccc2)c1COS(C)(=O)=O :: -9.1% (inactive)

Below are some molecules; for each one, tell me its growth inhibition.
1. CCCCCC(C#N)CCC(C)=O (configuration not stated)
2. CCC(=O)Nc1cc(C)c(C)cc1C
3. CN(C)CC1CCCC/C1=N/OC(=O)c1ccc(Cl)cc1 (configuration not stated)

(A)
1: -9.15% (inactive); 2: -10.2% (inactive); 3: 2.1% (inactive)

Below are some molecules; for each one, tell me its growth inhibition.
1. COc1ccc(OCCO)cc1
2. C=CC1CC[N-]CC1.[Cl][Cu][Cl]

(A)
["-17.8% (inactive)", "-1.9% (inactive)"]

* * *

- methodDescription: NCI Yeast Anticancer Drug Screen. Data for the cln2 rad14 strain (AID 165);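 note: 0% = growth equal to vehicle treated cultures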
- experimentalSetup: S. cerevisiae cln2 rad14 strain, at 50.0 µM, hits give high values
This is part of a sample that, as a whole, favours compounds with a hit. Of some 79,000 tested, about 15% had one in any assay.
Consider the following compounds; for each one, report its growth inhibition.
Give bare numbers, in %.

Record excerpt, results attached:
CC(C)C1CC(C(C)C)C(O)C(C(C)C)C1 (stereo unspecified) :: -5.9
CC(C)OP(=O)(OC(C)C)C1C(P(=O)(OC(C)C)OC(C)C)C(F)(F)C1(F)F (stereo unspecified) :: -2.65
O=C(Oc1ccc(-c2ccc([N+](=O)[O-])cc2)cc1)c1ccccc1 :: 15.4
CC(=O)ON(C(C)=O)c1ccc(C(N)=O)cc1 :: 6.25
Cc1[nH]c(=O)c2oc3cc4ccccc4cc3c2c1C(=O)O :: -44.1

// switching to the query compound
The measured growth inhibition associated with Cn1c(=O)nc2n(C)c3ccccc3cc-2c1=O reads -6.85

* * *

- methodDescription: NCI Yeast Anticancer Drug Screen. Data for the mlh1 rad18 strain (AID 175)
- experimentalSetup: S. cerevisiae mlh1 rad18 strain growth inhibition; at 50.0 µM; hits give high values
- Protocol: Growth inhibition of yeast strains with defined genetic alterations is measured as a screen for potential anti-cancer activity. Selected strains with alterations in DNA damage repair or cell cycle control were exposed to compounds and growth inhibition was measured relative to vehicle treated controls. The strain used in this assay is mlh1 rad18
The panel holds about 79,000 compounds, 15% with a hit somewhere; the sample as a whole holds those more often.
quantityMeasured: growth inhibition (%)
Answers are plain numbers, in %.

O=C(CCSc1ncnc2nc[nH]c12)c1ccccc1 :: 12.1
Nc1cc(C(Br)(Br)Br)nc2ccccc12 :: 31.8
COc1ccc(CN)cc1 :: -2.6
Cc1ccc(-c2cc(=O)c3cc(C)c(C)c(C(=O)O)c3o2)cc1[N+](=O)[O-] :: 31.1

Below are some compounds; for each one, tell me its growth inhibition.
1. O=Cc1ccnc2c(Cl)cccc12
2. CCOC(=O)C(Cc1cccc2ccccc12)(NC(C)=O)C(=O)OCC
3. O=C1NC(=O)C(=C/C=C/C=C\C2C(=O)NC(=O)NC2=O)C(=O)N1

(A)
18
-14.8
-10.6

* * *

Consider the following compounds; for each one, report its growth inhibition.
- methodDescription: NCI Yeast Anticancer Drug Screen. Data for the sgs1 mgt1 strain (AID 161);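 note: 0% = growth of cultures given vehicle only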
- experimentalSetup: S. cerevisiae sgs1 mgt1 strain, at 50.0 µM, hits give high values
This is part of a sample that, as a whole, favours compounds with a hit. Of some 79,000 tested, about 15% had one in any assay.
One number for each entry, in %.

Cc1c[n+]([O-])n(-c2ccccc2)n1 :: 0.7
c1cc2c3c(cccc3c1)N1C(=N2)Sc2nc3ccccc3nc21 :: -9.8
N#C/C(=C/C=C/c1ccco1)C(N)=O :: 15.6
CC12CCC3C(CCC4CCCCC43C)C1CCC2CO (configuration not stated) :: 17.8
COc1ccc(COC(=O)Nc2cccc(Cl)c2)cc1OC :: 20.1

Below are some compounds; for each one, tell me its growth inhibition.
1. COc1ccc([C@H]2CC3C(=O)N(c4ccc(OC)cc4)C(=O)C3c3[nH]c4ccccc4c32)cc1 (some centres not stated)
2. [O]=[W](=[O])([OH])[OH]
3. CC(C)CCCC(C)C1CCC2(C)C3CCC4C(C)(C)C(OCC(C)(C)C)CCC4(C)C3CCC12C (configuration not stated)
4. Oc1c(N=Nc2ccccc2)c2ccccc2c2ccc3ccccc3c12
5. O=c1c(-c2ccc(O)cc2)coc2cc(OC3OC(CO)C(O)C(O)C3O)cc(O)c12 (configuration not stated)
6. COc1ccc(OC)c(C(c2cc(OC)ccc2OC)C(Cl)(Cl)Cl)c1
7. COc1cc2c(c3oc(=O)cc(CCC(=O)O)c13)C1CC(=O)OC1O2 (configuration not stated)
8. C/C(CC(=O)Nc1ccc(C)c(C)c1)=N\NC(N)=O

(A)
[-1.05, -15.4, 4.7, -7.6, -40.8, -5.3, -9.15, -0.7]
